tested on: Escherichia coli ATCC 8739; format: cell-based
Where a SMILES comes first, the peptide text is derived from it. Bridges are numbered along the chain shown (N, C = ends). [ ]: non-standard residue; d: D form. The star is where a group is joined. ξ: configuration not given here. dAoc(2) = CCCCCC[C@@H](N)C(=O)O; ξLac(3-iPr) = CC(C)CC(O)C(=O)O; Heptanoyl = CCCCCCC(=O)*; Nle = CCCC[C@H](N)C(=O)O; Dab = NCC[C@H](N)C(=O)O; Hexanoyl = CCCCCC(=O)*
quantity_kind: MIC

Solved entries:
compound	quantity_kind	reported
CCCCCCC(=O)N[C@@H](CCN)C(=O)N[C@H](C(=O)N[C@@H](CCN)C(=O)N[C@H]1CSSC[C@H](C(N)=O)NC(=O)[C@H](CCN)NC(=O)[C@H](CCN)NC(=O)[C@H](CCCC)NC(=O)[C@@H](CCCCCC)NC(=O)[C@H](CCN)NC1=O)[C@@H](C)O [Example 1] (Heptanoyl-[Dab]T[Dab]C[Dab][dAoc(2)][Nle][Dab][Dab][dC]-NH2; disulfide 4-10)	MIC	0.5 to 1 µg/mL
CCCCCCC(=O)N[C@@H](CCN)C(=O)N[C@H](C(=O)N[C@@H](CCN)C(=O)N[C@H]1CSSC[C@H](C(N)=O)NC(=O)[C@H](CCN)NC(=O)[C@H](CCN)NC(=O)C(CC(C)C)OC(=O)[C@@H](CCCCCC)NC(=O)[C@H](CCN)NC1=O)[C@@H](C)O (some centres unmarked) [Example 2] (Heptanoyl-[Dab]T[Dab]C[Dab][dAoc(2)][ξLac(3-iPr)][Dab][Dab][dC]-NH2; disulfide 4-10)	MIC	4 µg/mL
CCCCCC[C@@H](N)C(=O)N[C@H](C(=O)N[C@@H](CCN)C(=O)N[C@H]1CSSC[C@H](C(N)=O)NC(=O)[C@H](CCN)NC(=O)[C@H](CCN)NC(=O)C(CC(C)C)OC(=O)[C@@H](CCCCCC)NC(=O)[C@H](CCN)NC1=O)[C@@H](C)O (some centres unmarked) [Example 3] (H-[dAoc(2)]T[Dab]C[Dab][dAoc(2)][ξLac(3-iPr)][Dab][Dab][dC]-NH2; disulfide 4-10)	MIC	2 µg/mL
CCCCCCC(=O)N[C@@H](Cc1c[nH]cn1)C(=O)N[C@H](C(=O)N[C@@H](CCN)C(=O)N[C@H]1CSSC[C@H](C(N)=O)NC(=O)[C@H](Cc2c[nH]cn2)NC(=O)[C@H](CCN)NC(=O)[C@H](CCCC)NC(=O)[C@@H](CCCCCC)NC(=O)[C@H](CCN)NC1=O)[C@@H](C)O [Example 6] (Heptanoyl-HT[Dab]C[Dab][dAoc(2)][Nle][Dab]H[dC]-NH2; disulfide 4-10)	MIC	4 µg/mL

Switching to the query record.
Incoming: Write down MIC measured for item CCCCCC[C@H]1NC(=O)[C@H](CCN)NC(=O)[C@@H](NC(=O)[C@H](CCN)NC(=O)[C@@H](NC(=O)[C@H](CCN)NC(=O)CCCCC)[C@@H](C)O)CSSC[C@H](C(N)=O)NC(=O)[C@H](CCN)NC(=O)[C@H](CCN)NC(=O)[C@H](CCCC)NC1=O [Example 7] (Hexanoyl-[Dab]T[Dab]C[Dab][dAoc(2)][Nle][Dab][Dab][dC]-NH2; disulfide 4-10)
Outgoing: 8 µg/mL

---

tested on: Staphylococcus aureus ATTC6538; format: cell-based
Where a SMILES comes first, the peptide text is derived from it. Bridges are numbered along the chain shown (N, C = ends). [ ]: non-standard residue; d: D form. The star is where a group is joined. ξ: configuration not given here. dAoc(2) = CCCCCC[C@@H](N)C(=O)O; ξLac(3-iPr) = CC(C)CC(O)C(=O)O; Heptanoyl = CCCCCCC(=O)*; Nle = CCCC[C@H](N)C(=O)O; Dab = NCC[C@H](N)C(=O)O; Hexanoyl = CCCCCC(=O)*
# Lookup of reported MIC keyed by entry
Your answer should be a plain number; it is taken to be in µg/mL.

compound	unit_tag	MIC
CCCCCC[C@H]1NC(=O)[C@H](CCN)NC(=O)[C@@H](NC(=O)[C@H](CCN)NC(=O)[C@@H](NC(=O)[C@H](CCN)NC(=O)CCCCC)[C@@H](C)O)CSSC[C@H](C(N)=O)NC(=O)[C@H](CCN)NC(=O)[C@H](CCN)NC(=O)C(CC(C)C)OC1=O (some centres unmarked) [Example 5] (Hexanoyl-[Dab]T[Dab]C[Dab][dAoc(2)][ξLac(3-iPr)][Dab][Dab][dC]-NH2; disulfide 4-10)	µg/mL	32
CCCCCCC(=O)N[C@@H](CCN)C(=O)N[C@H](C(=O)N[C@@H](CCN)C(=O)N[C@H]1CSSC[C@H](C(N)=O)NC(=O)[C@H](CCN)NC(=O)[C@H](CCN)NC(=O)C(CC(C)C)OC(=O)[C@@H](CCCCCC)NC(=O)[C@H](CCN)NC1=O)[C@@H](C)O (some centres unmarked) [Example 2] (Heptanoyl-[Dab]T[Dab]C[Dab][dAoc(2)][ξLac(3-iPr)][Dab][Dab][dC]-NH2; disulfide 4-10)	µg/mL	64
CCCCCCC(=O)N[C@@H](CCN)C(=O)N[C@H](C(=O)N[C@@H](CCN)C(=O)N[C@H]1CSSC[C@H](C(N)=O)NC(=O)[C@H](CCN)NC(=O)[C@H](CCN)NC(=O)[C@H](CCCC)NC(=O)[C@@H](CCCCCC)NC(=O)[C@H](CCN)NC1=O)[C@@H](C)O [Example 1] (Heptanoyl-[Dab]T[Dab]C[Dab][dAoc(2)][Nle][Dab][Dab][dC]-NH2; disulfide 4-10)	µg/mL	16

Now turn to the next compound.
Incoming: Tell us which MIC value is on record for CCCCCCC(=O)N[C@@H](Cc1c[nH]cn1)C(=O)N[C@H](C(=O)N[C@@H](CCN)C(=O)N[C@H]1CSSC[C@H](C(N)=O)NC(=O)[C@H](Cc2c[nH]cn2)NC(=O)[C@H](CCN)NC(=O)[C@H](CCCC)NC(=O)[C@@H](CCCCCC)NC(=O)[C@H](CCN)NC1=O)[C@@H](C)O [Example 6] (Heptanoyl-HT[Dab]C[Dab][dAoc(2)][Nle][Dab]H[dC]-NH2; disulfide 4-10)
Outgoing: 16
